system: T1, XtrLin28b CSD (Xenopus tropicalis, UniProt B4F6I0 27-114)
T1 sequence: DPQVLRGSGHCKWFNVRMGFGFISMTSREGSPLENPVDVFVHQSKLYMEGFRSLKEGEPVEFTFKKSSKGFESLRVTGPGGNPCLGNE
assay: Trp fluorescence titration
Parameter Kd: see the listing below.
Write the number in nM without appending the unit.

Before answering, review these 5 worked examples.
binder | measure_unit | measured_number
TTTTTCT (ssDNA) [dC6] | nM | 87
TCTTTTT (ssDNA) [dC2] | nM | 137
TTTGTTT (ssDNA) [dG4] | nM | 119
ATTTTTT (ssDNA) [dA1] | nM | 84
TTTTTGT (ssDNA) [dG6] | nM | 81

IN: Entry TTTTTAT (ssDNA) [dA6] : reported Kd = ?
OUT: 147

IN: Could you tell me which Kd is on file for TTTTTTG (ssDNA) [dG7 (position 7)] ?
OUT: 80

IN: Quick one: Kd for TTTTTTTTT (ssDNA) [dT9] ?
OUT: 44

Where these numbers come from: paper PMC3424542
